- measuredOn: PI3K-delta (Homo sapiens, UniProt O00329)
- Sequence (O00329 whole entry, species assumed): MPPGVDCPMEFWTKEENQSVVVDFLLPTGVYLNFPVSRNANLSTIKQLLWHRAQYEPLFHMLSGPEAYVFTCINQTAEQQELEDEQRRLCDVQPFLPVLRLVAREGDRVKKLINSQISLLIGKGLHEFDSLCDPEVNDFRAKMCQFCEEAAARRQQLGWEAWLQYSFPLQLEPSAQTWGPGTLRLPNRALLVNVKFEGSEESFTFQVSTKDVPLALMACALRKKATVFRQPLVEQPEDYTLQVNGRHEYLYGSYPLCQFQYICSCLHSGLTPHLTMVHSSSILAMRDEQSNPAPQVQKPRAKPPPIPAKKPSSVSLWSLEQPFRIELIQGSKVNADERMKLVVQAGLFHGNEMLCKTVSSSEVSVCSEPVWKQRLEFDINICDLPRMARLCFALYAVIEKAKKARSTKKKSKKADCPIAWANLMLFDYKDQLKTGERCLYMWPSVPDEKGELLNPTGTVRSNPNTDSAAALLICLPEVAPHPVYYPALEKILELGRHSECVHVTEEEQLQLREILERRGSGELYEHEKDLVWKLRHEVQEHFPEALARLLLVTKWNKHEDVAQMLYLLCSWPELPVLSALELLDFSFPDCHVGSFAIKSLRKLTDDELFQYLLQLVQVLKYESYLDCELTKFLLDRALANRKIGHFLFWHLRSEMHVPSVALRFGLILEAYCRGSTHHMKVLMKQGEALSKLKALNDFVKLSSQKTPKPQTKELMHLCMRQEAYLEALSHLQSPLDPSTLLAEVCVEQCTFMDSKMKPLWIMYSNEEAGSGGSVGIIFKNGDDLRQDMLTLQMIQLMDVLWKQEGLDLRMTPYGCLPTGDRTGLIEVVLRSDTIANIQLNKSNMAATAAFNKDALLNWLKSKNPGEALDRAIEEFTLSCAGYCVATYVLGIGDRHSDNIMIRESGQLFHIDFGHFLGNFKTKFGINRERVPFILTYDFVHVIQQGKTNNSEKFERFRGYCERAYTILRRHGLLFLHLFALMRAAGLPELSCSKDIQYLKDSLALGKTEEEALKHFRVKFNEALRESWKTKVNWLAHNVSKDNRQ
- Sequence (P27986 whole entry partner, species assumed): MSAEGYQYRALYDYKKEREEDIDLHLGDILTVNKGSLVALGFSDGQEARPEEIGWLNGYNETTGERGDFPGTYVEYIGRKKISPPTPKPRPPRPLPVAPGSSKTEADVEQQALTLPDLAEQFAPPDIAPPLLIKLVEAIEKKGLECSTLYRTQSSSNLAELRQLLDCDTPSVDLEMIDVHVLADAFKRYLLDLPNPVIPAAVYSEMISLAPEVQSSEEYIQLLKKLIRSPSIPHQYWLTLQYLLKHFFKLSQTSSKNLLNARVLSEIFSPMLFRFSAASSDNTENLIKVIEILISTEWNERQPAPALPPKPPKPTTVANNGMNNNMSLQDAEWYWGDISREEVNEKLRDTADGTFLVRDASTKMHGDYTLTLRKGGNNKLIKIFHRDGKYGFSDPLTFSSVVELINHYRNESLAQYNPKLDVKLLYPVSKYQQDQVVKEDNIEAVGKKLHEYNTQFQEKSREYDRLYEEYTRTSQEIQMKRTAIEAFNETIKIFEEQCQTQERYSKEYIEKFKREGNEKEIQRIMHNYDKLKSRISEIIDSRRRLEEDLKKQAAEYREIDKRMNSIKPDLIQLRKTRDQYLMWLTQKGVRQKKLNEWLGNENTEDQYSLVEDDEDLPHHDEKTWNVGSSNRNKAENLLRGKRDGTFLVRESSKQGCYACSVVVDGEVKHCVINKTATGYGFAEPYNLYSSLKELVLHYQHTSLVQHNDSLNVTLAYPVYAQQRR
- assay: PI3K-delta fluorescence polarization assay
- Type: biochemical
- conditionInfo: read-out: PI3Kδ Avg. IC50
valueKind: pIC50
Scale note: pIC50 = -log10(concentration in M).

Solved cases below.
smilesData	measuredOn	measurement
COc1ccc2c(c1)c(C=C1Oc3cc(O)cc(O)c3C1=O)c(C)n2CCCN1CCN(CCO)CC1	PI3K-delta (Homo sapiens, UniProt O00329)	8.70
COc1ccc2c(c1)c(/C=C1\Oc3cc(O)cc(O)c3C1=O)c(-c1c(C)noc1C)n2CCN1CCN(C)CC1	PI3K-delta (Homo sapiens, UniProt O00329)	9.05
COc1ccc2c(c1)c(C=C1Oc3cc(O)cc(O)c3C1=O)c(C)n2CCCCCl	PI3K-delta (Homo sapiens, UniProt O00329)	8.22

Give pIC50 for COc1ccc2[nH]c(-c3cnn(C)c3)c(/C=C3\Oc4cc(O)cc(O)c4C3=O)c2c1
8.82

Indicate its recorded pIC50; the molecule in question is COc1ccc2c(c1)c(/C=C1\Oc3cc(O)cc(O)c3C1=O)c(-c1cnn(C)c1)n2CC(=O)N(C)C
7.73

Please indicate pIC50 recorded for COc1ccc2c(c1)c(/C=C1\Oc3cc(O)cc(F)c3C1=O)c(C)n2CCN1CCN(C)CC1
8.82

Please list pIC50 recorded for the molecule CCn1c(C)c(/C=C2\Oc3ccc(NC(=O)Nc4ccc(C(=O)N(C)CCN(C)C)cc4)cc3C2=O)c2cc(OC)ccc21
8.84
